# ASSAY_NOTES: Selectivity index, ratio of IC50 for human HeLa cells to IC50 for drug-sensitive ring-stage Plasmodium falciparum 3D7
# Type: toxicity, cell-based
# APPLIED_CONDITIONS: read-out: Selectivity Index
METRIC_NAME: selectivity ratio
Number only, please.

*Q* Entry CN(C)c1ccc(C(=O)N[C@@H](CCCCCC(=O)NO)C(=O)Nc2cccc3cccnc23)cc1 has what selectivity ratio?
*A* 17

*Q* Please answer likewise for COc1ccc2[nH]c(C)c(CC(=O)N[C@@H](CCCCCC(=O)NO)C(=O)Nc3cccc4cccnc34)c2c1
*A* 17

*Q* Also check COc1ccc2cc([C@H](C)C(=O)N[C@@H](CCCCCC(=O)NO)C(=O)Nc3cccc4cccnc34)ccc2c1
*A* 17

----------
# MEASURED_TARGET: Histone deacetylase (Plasmodium falciparum 3D7) (UniProt Q7K6A1)
# Sequence (Q7K6A1 as listed by the source): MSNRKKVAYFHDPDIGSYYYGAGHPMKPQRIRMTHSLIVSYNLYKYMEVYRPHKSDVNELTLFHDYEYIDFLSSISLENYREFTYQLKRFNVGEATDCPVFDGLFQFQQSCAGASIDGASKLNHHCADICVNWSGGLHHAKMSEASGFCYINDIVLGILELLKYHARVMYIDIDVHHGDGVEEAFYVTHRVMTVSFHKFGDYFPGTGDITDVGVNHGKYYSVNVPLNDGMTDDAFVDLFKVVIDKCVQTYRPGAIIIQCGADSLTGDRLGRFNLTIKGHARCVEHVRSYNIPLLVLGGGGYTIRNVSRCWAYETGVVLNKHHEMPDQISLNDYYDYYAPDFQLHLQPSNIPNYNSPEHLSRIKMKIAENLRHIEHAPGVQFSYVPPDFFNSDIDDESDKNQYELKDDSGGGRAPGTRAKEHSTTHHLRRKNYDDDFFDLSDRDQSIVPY
# ASSAY_NOTES: Inhibition of trophozoite stage of Plasmodium falciparum 3D7 HDAC1 in infected-human erythrocytes assessed as histone H4 hyperacetylation at 20 to 100 nM after 3.5 hrs by Western blot analysis
# Assay type: cell-based
The source made the active and inactive calls. No cut-off for these calls is given here.
One label from this list, please: y (active), n (inactive)

COc1ccc2cc([C@H](C)C(=O)N[C@@H](CCCCCC(=O)NO)C(=O)Nc3cccc4cccnc34)ccc2c1    y
C[C@@H]1CC[C@H]2[C@@H](C)C(=O)O[C@@H]3O[C@@]4(C)CC[C@@H]1[C@]32OO4    n
COc1ccc2[nH]c(C)c(CC(=O)N[C@@H](CCCCCC(=O)NO)C(=O)Nc3cccc4cccnc34)c2c1    y

// switching to the query molecule
*Q* Look up the recorded call for CN(C)c1ccc(C(=O)N[C@@H](CCCCCC(=O)NO)C(=O)Nc2ccccc2Cc2ccccc2)cc1 in this test.
*A* y
